B1: LINE1-full (parent)
chain: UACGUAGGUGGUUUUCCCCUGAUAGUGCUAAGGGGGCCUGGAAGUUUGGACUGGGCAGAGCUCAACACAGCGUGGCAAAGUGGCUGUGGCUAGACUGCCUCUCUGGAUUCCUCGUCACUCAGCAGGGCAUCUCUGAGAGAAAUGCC

variants of: B1; experiment: self-cleavage, relative activity (ratio to wild type); higher = more cleavage; in vitro, sequencing; the parent is a self-cleaving ribozyme
Measured self-cleavage, listed per entry for reference.
Kindly provide the number alone.

Some solved entries appear below for comparison.
A65G A69G = 0
U81A U112A = 1.7
A78G A138U = 1
U47C G127C = 1.23

Req: Note down self-cleavage recorded for C68U C123G
Resp: 0.1

Req: Fill in reported self-cleavage for this entry: U9C A138G
Resp: 1.21

Req: Identify measured self-cleavage corresponding to G49A U134C
Resp: 0.75

Req: Using known records, supply self-cleavage for A22G U112C
Resp: 1.25

Req: Answer with the recorded self-cleavage of U15A U46G only.
Resp: 0.85

Req: Give self-cleavage for U13C A121U
Resp: 1.26

Req: Tell me measured self-cleavage for U15A A31G please.
Resp: 0.55

Req: Quote self-cleavage reported for G75A A107G please.
Resp: 1.66

Req: Answer with the recorded self-cleavage of U9G G93C only.
Resp: 0.11

Req: Tell us which self-cleavage value is on record for U20C G25A
Resp: 0.84

Req: Please report self-cleavage for the following variant: A59U U85A
Resp: 0.1

Req: Give the reported self-cleavage for this variant. U14C A31G
Resp: 1.24
